Measurement Target: QuantiLum Luciferase (Photinus pyralis, UniProt P08659)
Construct: purchased Promega Corporation E170
Sequence (P08659 whole entry): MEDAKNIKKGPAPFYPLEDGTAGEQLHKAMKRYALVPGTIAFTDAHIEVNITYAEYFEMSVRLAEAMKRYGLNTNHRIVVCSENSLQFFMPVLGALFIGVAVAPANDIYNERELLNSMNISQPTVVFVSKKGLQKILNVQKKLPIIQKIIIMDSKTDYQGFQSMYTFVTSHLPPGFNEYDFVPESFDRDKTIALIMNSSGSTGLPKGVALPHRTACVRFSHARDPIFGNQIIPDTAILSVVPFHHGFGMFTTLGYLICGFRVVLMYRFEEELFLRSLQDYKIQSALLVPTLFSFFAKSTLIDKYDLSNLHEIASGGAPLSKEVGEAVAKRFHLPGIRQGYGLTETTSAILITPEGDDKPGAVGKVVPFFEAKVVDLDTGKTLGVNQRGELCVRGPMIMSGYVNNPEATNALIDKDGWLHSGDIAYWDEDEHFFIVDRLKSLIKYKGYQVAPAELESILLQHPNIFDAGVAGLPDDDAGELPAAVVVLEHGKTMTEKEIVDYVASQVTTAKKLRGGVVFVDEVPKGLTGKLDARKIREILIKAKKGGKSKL
Procedure Details: Scaffolds: light emission of luciferin derivatives with QuantiLum luciferase alone, + Co A, + DTT, + Co A and DTT
Type: biochemical, firefly
Test Context: Derivative Conc. 1.07; Alone
Classify by measured light emission values: y if it is equal to or exceeds 3000, n if it is smaller.

Qu. State whether the measured light emission values reaches 3000, counting equality as reaching it, for O=C(O)[C@H]1CSC(c2nc3ccc(OCc4ccccc4)cc3s2)=N1 [luciferin 6-benzyl ether, reference compound]
Ans. y

Qu. Hi, just wondering whether O=C(O)[C@H]1CSC(c2ccc3cc(Oc4ccc(C(F)(F)F)cc4[N+](=O)[O-])ccc3n2)=N1 [GST #3] shows light emission values of 3000 or higher.
Ans. y

Qu. Is the recorded value of light emission values equal to or greater than 3000 for this compound? NCCCOc1ccc2nc(C3=N[C@@H](C(=O)O)CS3)sc2c1 [MAO-3, 6-Aminopropoxyluciferin]
Ans. y

Qu. Can CCN(CC)c1ccc2nc(C3=NC(C(=O)O)CS3)sc2c1 (centres unmarked) [diethylaminoluciferin] be said to have light emission values at or above 3000?
Ans. y

Qu. Please check the record COC(=O)[C@H]1CSC(c2ccc3cc(Oc4ccc(C(F)(F)F)cc4[N+](=O)[O-])ccc3n2)=N1 [GST #4] and state if its light emission values is at or above 3000.
Ans. n

Qu. Check this compound for light emission values at or above 3000: COc1ccc2nc(C3=N[C@@H](C(=O)O)CS3)sc2c1 [luciferin 6-methyl ether, D-luciferin 6' methyl ether, reference compound]
Ans. n

Qu. Does light emission values meet or surpass 3000 for O=C(O)[C@H]1CSC(c2nc3ccc(OCCO)cc3s2)=N1 [2hydroxyethoxyluciferin ether] ?
Ans. y

Qu. Tell me whether light emission values is at least 3000 here: CN(Cc1ccccc1)c1ccc2nc(C3=NC(C(=O)O)CS3)sc2c1 (centres unmarked) [methylbenzylaminoluciferin]
Ans. y
